pIC50: −log10 of the molar value.
Here we list compounds with their recorded pIC50 when tested on PLK1 (Homo sapiens, UniProt P53350).
Sequence (P53350 whole entry): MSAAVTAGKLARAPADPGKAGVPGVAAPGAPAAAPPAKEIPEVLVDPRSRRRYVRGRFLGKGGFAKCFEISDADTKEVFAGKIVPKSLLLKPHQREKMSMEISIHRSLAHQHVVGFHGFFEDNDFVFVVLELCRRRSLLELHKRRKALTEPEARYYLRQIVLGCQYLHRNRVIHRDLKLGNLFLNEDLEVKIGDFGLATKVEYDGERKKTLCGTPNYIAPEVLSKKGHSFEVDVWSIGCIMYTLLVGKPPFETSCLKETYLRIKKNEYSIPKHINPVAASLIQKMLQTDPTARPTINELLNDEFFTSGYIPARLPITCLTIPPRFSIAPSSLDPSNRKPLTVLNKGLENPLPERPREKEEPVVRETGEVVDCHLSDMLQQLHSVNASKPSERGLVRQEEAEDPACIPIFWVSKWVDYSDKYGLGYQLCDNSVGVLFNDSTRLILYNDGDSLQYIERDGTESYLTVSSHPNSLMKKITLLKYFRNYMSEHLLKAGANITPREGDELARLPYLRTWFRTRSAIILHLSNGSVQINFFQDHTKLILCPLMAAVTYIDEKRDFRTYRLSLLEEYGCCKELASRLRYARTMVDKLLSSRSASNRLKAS
testReadout: pIC50

| chemicalString | testedOn | endpointValue |
| --- | --- | --- |
| CC[C@@H]1C(=O)N(C)c2cnc(Nc3ccc(C(=O)NC4CCN(CCCC(=O)N[C@@H](CC(C)C)C(=O)O)CC4)cc3OC)nc2N1C1CCCC1 | PLK1 (Homo sapiens, UniProt P53350) | > 7.00 |
| CC[C@@H]1C(=O)N(C)c2cnc(Nc3ccc(C(=O)NCCCC(=O)N[C@@H](CC(C)C)C(=O)OC4CCCC4)cc3OC)nc2N1C1CCCC1 | PLK1 (Homo sapiens, UniProt P53350) | 6.30 to 7.00 |
| CC[C@@H]1C(=O)N(C)c2cnc(Nc3ccc(C(=O)NC4CCN(CCNC(=O)N[C@@H](CC(C)C)C(=O)OC5CCCC5)CC4)cc3OC)nc2N1C1CCCC1 | PLK1 (Homo sapiens, UniProt P53350) | > 7.00 |
